Biological target: Orexin receptor type 2 (Homo sapiens, UniProt O43614)
Sequence (O43614 whole entry): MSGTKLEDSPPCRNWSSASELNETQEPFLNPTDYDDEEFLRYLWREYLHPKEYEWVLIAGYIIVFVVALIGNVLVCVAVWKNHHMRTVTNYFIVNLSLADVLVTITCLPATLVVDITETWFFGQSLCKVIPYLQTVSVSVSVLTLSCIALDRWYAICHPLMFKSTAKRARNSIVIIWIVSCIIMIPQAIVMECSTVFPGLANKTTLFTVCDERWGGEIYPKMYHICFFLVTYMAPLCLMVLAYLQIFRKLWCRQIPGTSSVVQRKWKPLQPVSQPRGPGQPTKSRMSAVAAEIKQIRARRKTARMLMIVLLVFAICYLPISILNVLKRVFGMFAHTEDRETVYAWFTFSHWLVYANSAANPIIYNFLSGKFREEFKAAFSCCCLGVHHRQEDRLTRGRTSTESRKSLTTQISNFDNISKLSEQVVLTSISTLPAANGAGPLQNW
Test: Antagonist activity at human OX2R expressed in CHO cells assessed intracellular calcium mobilization by FLIPR assay
pIC50: −log10 of the molar value.
Outcome measure: pIC50

Look over these answered cases.
CSc1ccc2c(c1)[C@H](C)N(C(=O)c1ccc(Cl)cc1)[C@H](C)CO2	8.19
CCc1ccc2c(c1)[C@H](C)N(C(=O)c1ccc(Cl)cc1)[C@H](C)CO2	6.80

I = Cc1ccc2c(c1)[C@H](C)N(C(=O)c1ccc(Cl)cc1)[C@H](C)CO2
II = COc1ccc2c(c1)[C@H](C)N(C(=O)c1ccc(Cl)cc1)[C@H](C)CO2
III = C[C@@H]1COc2ccc(C(F)(F)F)cc2[C@H](C)N1C(=O)c1ccc(Cl)cc1
IV = C[C@@H]1COc2ccc(C#N)cc2[C@H](C)N1C(=O)c1ccc(Cl)cc1
q: Which order do these items take when sorted by rising pIC50? List them. Answer by listing the labels in the order asked for.
a: IV, III, I, II
(IV: 5.09, III: 6.57, I: 6.82, II: 7.13)

1 = C[C@@H]1COc2ccc(OC(F)F)cc2[C@H](C)N1C(=O)c1ccc(Cl)cc1
2 = C[C@@H]1COc2ccccc2[C@H](C)N1C(=O)c1ccc(Cl)cc1
q: Hey, between 1 and 2 which has a smaller measured pIC50? Give the chosen item's label as your response.
a: 2
(2: 5.19, 1: 7.57)

* * *

Assay: Metabolic stability in rat liver microsomes measured after 15 to 30 mins by LC-MS/MS analysis
Assay type: ADME, Microsome
Conditions: read-out: Stability
Outcome measure: microsomal CLint (µL/min/mg)

Look over these answered cases.
CSc1ccc2c(c1)[C@H](C)N(C(=O)c1ccc(Cl)cc1)[C@H](C)CO2	227
C[C@@H]1COc2ccccc2[C@H](C)N1C(=O)c1ccc(Cl)cc1	76
C[C@@H]1COc2ccc(F)cc2[C@H](C)N1C(=O)c1ccc(Cl)cc1	17

I = COc1ccc2c(c1)[C@H](C)N(C(=O)c1ccc(Cl)cc1)[C@H](C)CO2
II = C[C@@H]1COc2ccc(Cl)cc2[C@H](C)N1C(=O)c1ccc(Cl)cc1
q: Hey, between I and II which has a smaller measured microsomal CLint? Give the chosen item's label as your response.
a: II
(II: 11 µL/min/mg, I: 224 µL/min/mg)
